- test system: human plasma kallikrein (Homo sapiens, UniProt P03952)
- Sequence (P03952 391-638 limits assumed): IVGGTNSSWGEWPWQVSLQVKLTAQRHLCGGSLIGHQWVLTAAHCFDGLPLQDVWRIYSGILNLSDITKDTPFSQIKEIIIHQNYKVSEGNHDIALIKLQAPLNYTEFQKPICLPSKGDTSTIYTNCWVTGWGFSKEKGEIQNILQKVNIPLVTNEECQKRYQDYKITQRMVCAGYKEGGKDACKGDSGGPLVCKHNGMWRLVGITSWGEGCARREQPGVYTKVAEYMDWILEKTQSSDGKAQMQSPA
- Sequence (P03952 20-390 partner limits assumed): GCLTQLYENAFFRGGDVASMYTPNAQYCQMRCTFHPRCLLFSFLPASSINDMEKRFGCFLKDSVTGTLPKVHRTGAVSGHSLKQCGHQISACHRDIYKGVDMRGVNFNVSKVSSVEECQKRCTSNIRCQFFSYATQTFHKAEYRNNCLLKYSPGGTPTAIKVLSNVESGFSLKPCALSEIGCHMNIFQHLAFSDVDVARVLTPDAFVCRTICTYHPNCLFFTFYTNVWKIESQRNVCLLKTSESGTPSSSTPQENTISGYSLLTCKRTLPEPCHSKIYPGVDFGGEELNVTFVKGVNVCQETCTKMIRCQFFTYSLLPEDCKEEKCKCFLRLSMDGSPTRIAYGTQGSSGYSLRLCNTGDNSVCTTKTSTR
- method notes: Determination of the plasma kallikrein activity (fluorogenic peptide substrate, AMC cleavage)
- condition context: plasma kallikrein from Kordia 0.6 nM; substrate H-Pro-Phe-Arg-AMC 10 μM; 30 min at 22° C.; in some cases averages from multiple determinations
pIC50: −log10 of the molar value.
property label: pIC50

CCCC(C(=O)Nc1ccc(C(=O)NC)nc1)n1cc(OC)c(-c2cc(Cl)ccc2OCC(F)(F)F)cc1=O (racemic) = 6.74

A = COc1cn(C(CCOC(C)(C)C)C(=O)Nc2ccc(C(=O)O)cc2)c(=O)cc1-c1cc(Cl)ccc1OCC(F)F (racemic)
B = COc1cn(C(CCOC(C)(C)C)C(=O)Nc2ccc(C(=O)O)s2)c(=O)cc1-c1cc(Cl)ccc1OCC(F)(F)F (racemic)
Pick the one with the larger pIC50: A vs B Kindly give the label for the entry you pick.
B
(B: 7.72, A: 6.92)

====

- test system: human plasma kallikrein (Homo sapiens, UniProt P03952)
- Construct: purchased Kordia
- method notes: Determination of the plasma kallikrein activity (fluorogenic peptide substrate, AMC cleavage)
- Assay type: biochemical
- condition context: plasma kallikrein from Kordia 0.6 nM; substrate H-Pro-Phe-Arg-AMC 10 μM; 30 min at 22° C.; in some cases averages from multiple determinations
property label: IC50 (nM)

Consider the following illustrative entries.
CNC(=O)c1ccc(NC(=O)C(C[C@H](C)OC)n2cc(OC)c(-c3cc(Cl)ccc3OCC(F)(F)F)cc2=O)cn1 (mixture of isomers) = 70
COc1cn(C(C[C@@H]2CCCCO2)C(=O)Nc2ccc(C(=O)O)cc2)c(=O)cc1-c1cc(Cl)ccc1OCC(F)(F)F (single isomer, unassigned) [Example 50] = 19

I = COc1cn(C(CC2COCCO2)C(=O)Nc2ccc(C(=O)O)cc2)c(=O)cc1-c1cc(Cl)ccc1OCC(F)F (stereo not drawn)
II = COc1cn(C(CC2COCCO2)C(=O)Nc2ccc(C(=O)O)cc2)c(=O)cc1-c1cc(Cl)ccc1OCC(F)(F)F (single isomer, unassigned) [Example 62]
III = COc1cn(C(CC2=NOCCC2)C(=O)Nc2ccc3nn(C)cc3c2)c(=O)cc1-c1cc(Cl)ccc1OCC(F)(F)F (racemic)
IV = COc1cn(C(CC2COCCO2)C(=O)Nc2ccc(C(N)=O)nc2)c(=O)cc1-c1cc(Cl)ccc1OCC(F)(F)F (stereo not drawn)
Descending sort on IC50 required. # respond with the labels, arranged in the requested order
III, I, IV, II
(III: 130 nM, I: 80 nM, IV: 55 nM, II: 15 nM)

====

The next entries give measured IC50 for UniProtKB P03951.
Sequence (P03951 388-625 limits assumed): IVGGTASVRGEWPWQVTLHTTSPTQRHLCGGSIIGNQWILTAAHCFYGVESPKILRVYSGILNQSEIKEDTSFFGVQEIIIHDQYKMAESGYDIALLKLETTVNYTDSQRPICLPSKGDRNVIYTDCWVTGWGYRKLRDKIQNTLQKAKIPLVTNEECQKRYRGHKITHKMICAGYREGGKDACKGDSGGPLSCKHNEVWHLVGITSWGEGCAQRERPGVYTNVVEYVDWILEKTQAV
Sequence (P03951 19-387 partner limits assumed): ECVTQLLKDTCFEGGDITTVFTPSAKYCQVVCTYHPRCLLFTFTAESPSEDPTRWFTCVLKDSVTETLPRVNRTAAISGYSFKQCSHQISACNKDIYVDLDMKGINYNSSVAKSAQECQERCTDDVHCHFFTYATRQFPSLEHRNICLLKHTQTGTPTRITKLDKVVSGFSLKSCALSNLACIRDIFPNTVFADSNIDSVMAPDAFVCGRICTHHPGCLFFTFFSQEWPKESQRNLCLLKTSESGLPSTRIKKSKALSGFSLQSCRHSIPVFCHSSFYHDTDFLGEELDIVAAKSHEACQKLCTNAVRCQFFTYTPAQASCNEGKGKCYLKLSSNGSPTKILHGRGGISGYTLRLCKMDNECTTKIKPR
property label: IC50 (nM)

Consider the following illustrative entries.
CNC(=O)c1ccc(NC(=O)C(Cc2ccn(C)n2)n2cc(OC)c(-c3cc(Cl)ccc3OCC(F)(F)F)cc2=O)cn1 (racemic) = 6.4
COc1cn(C(CCOC2(C)CCC2)C(=O)Nc2ccc3nn(C)cc3c2)c(=O)cc1-c1cc(Cl)ccc1OCC(F)(F)F (racemic) = 14
COc1cn(C(CCOC2(C)CCC2)C(=O)Nc2ccc(C(N)=O)c(F)c2)c(=O)cc1-c1cc(Cl)ccc1OCC(F)(F)F (racemic) = 14

1 = CNC(=O)c1ccc(NC(=O)C(C[C@@H]2CCCCO2)n2cc(OC)c(-c3cc(Cl)ccc3OCC(F)(F)F)cc2=O)cn1 (some centres unmarked)
2 = COc1cn(C(CCOC(C)(C)C)C(=O)Nc2ccc(C(N)=O)nc2)c(=O)cc1-c1cc(Cl)ccc1OCC(F)(F)F (racemic)
Pick the one with the larger IC50: 1 vs 2 Kindly give the label for the entry you pick.
2
(2: 18 nM, 1: 5.1 nM)

====

- test system: human plasma kallikrein (Homo sapiens, UniProt P03952)
- method notes: Determination of the plasma kallikrein activity (fluorogenic peptide substrate, AMC cleavage)
- condition context: plasma kallikrein from Kordia 0.6 nM; substrate H-Pro-Phe-Arg-AMC 10 μM; 30 min at 22° C.; in some cases averages from multiple determinations
property label: IC50 (µM)

Consider the following illustrative entries.
COc1cn(C(CCOC2(C)CCC2)C(=O)Nc2ccc(C(N)=O)nc2)c(=O)cc1-c1cc(Cl)ccc1OCC(F)(F)F (racemic) [Example 60] = 0.084
COc1cn(C(CC2COCCO2)C(=O)Nc2ccc(C(N)=O)c(F)c2)c(=O)cc1-c1cc(Cl)ccc1OCC(F)F (stereo not shown) [Example 32] = 0.16
COc1cc(NC(=O)C(C[C@@H]2CCCCO2)n2cc(OC)c(-c3cc(Cl)ccc3OCC(F)(F)F)cc2=O)ccc1C(=O)O (stereo partly shown) [Example 76] = 0.15
CNC(=O)c1ccc(NC(=O)C(CC2COCCO2)n2cc(OC)c(-c3cc(Cl)ccc3OCC(F)F)cc2=O)cn1 (stereo not shown) [Example 31] = 0.12

A = CCCC(C(=O)Nc1ccc(C(N)=O)nc1)n1cc(OC)c(-c2cc(Cl)ccc2OCC(F)(F)F)cc1=O (racemic) [Example 68]
B = CNC(=O)c1ccc(NC(=O)C(C[C@H]2CCCCO2)n2cc(OC)c(-c3cc(Cl)ccc3OCC(F)(F)F)cc2=O)cn1 (stereo partly shown) [Example 22]
C = CNC(=O)c1ccc(NC(=O)C(CC2COCCO2)n2cc(OC)c(-c3cc(Cl)ccc3OCC(F)(F)F)cc2=O)cn1 (stereo not shown) [Example 19]
Descending sort on IC50 required. # respond with the labels, arranged in the requested order
A, B, C

====

- test system: human plasma kallikrein (Homo sapiens, UniProt P03952)
- method notes: Determination of the plasma kallikrein activity (fluorogenic peptide substrate, AMC cleavage)
- condition context: plasma kallikrein from Kordia 0.6 nM; substrate H-Pro-Phe-Arg-AMC 10 μM; 30 min at 22° C.; in some cases averages from multiple determinations
property label: IC50 (nM)

COCCC(C(=O)Nc1ccc(C(N)=O)c(F)c1)n1cc(OC)c(-c2cc(Cl)ccc2OCC(F)(F)F)cc1=O (racemic) = 100
COc1cn(C(CCOC(F)(F)F)C(=O)Nc2ccc(C(N)=O)c(F)c2)c(=O)cc1-c1cc(Cl)ccc1OCC(F)(F)F (racemic) = 190
COc1cn(C(C[C@H]2CCCCO2)C(=O)Nc2ccc(C(N)=O)c(F)c2)c(=O)cc1-c1cc(Cl)ccc1OCC(F)(F)F (some centres unmarked) = 340
CNC(=O)c1ccc(NC(=O)C(CC2COCCO2)n2cc(OC)c(-c3cc(Cl)ccc3OCCF)cc2=O)cn1 (centres unmarked) = 150
COc1cn(C(C[C@@H]2CCCCO2)C(=O)Nc2ccc(C(=O)O)s2)c(=O)cc1-c1cc(Cl)ccc1OCC(F)(F)F (some centres unmarked) = 24

a = CNC(=O)c1ccc(NC(=O)C(CCOC)n2cc(OC)c(-c3cc(Cl)ccc3OCC(F)(F)F)cc2=O)cc1F (racemic)
b = COc1cn(C(CCOC(C)C)C(=O)Nc2ccc(C(=O)O)cc2)c(=O)cc1-c1cc(Cl)ccc1OCC(F)(F)F (racemic)
Would you kindly point out which of a and b has the smaller IC50 figure? Kindly give the label for the entry you pick.
b

====

- test system: human plasma kallikrein (Homo sapiens)
- method notes: Determination of the plasma kallikrein activity (fluorogenic peptide substrate, AMC cleavage)
- condition context: plasma kallikrein from Kordia 0.6 nM; substrate H-Pro-Phe-Arg-AMC 10 μM; 30 min at 22° C.; in some cases averages from multiple determinations
pIC50: −log10 of the molar value.
property label: pIC50

Consider the following illustrative entries.
CCCC(C(=O)Nc1ccc2nn(C)cc2c1)n1cc(OC)c(-c2cc(Cl)ccc2OCC(F)(F)F)cc1=O (racemic) = 6.85
COc1cn(C(C[C@H](C)OC)C(=O)Nc2ccc(C(N)=O)nc2)c(=O)cc1-c1cc(Cl)ccc1OCC(F)(F)F (stereo partly shown) = 6.92
COc1cn(C(C[C@H]2CCCCO2)C(=O)Nc2ccc3nn(C)cc3c2)c(=O)cc1-c1cc(Cl)ccc1OCC(F)(F)F (stereo partly shown) = 6.82
COc1cn(C(CCOC(C)C)C(=O)Nc2ccc(C(N)=O)c(F)c2)c(=O)cc1-c1cc(Cl)ccc1OCC(F)(F)F (racemic) = 6.89
COc1cn(C(C[C@@H]2CCCCO2)C(=O)Nc2ccc(C(=O)O)cc2)c(=O)cc1-c1cc(Cl)ccc1OCC(F)(F)F (stereo partly shown) [Example 49] = 7.48

a = COc1cn(C(CCOC(F)(F)F)C(=O)Nc2ccc3nn(C)cc3c2)c(=O)cc1-c1cc(Cl)ccc1OCC(F)(F)F (racemic)
b = COc1cn([C@@H](C[C@@H]2CCCCO2)C(=O)Nc2ccc(C(=O)O)cc2)c(=O)cc1-c1cc(Cl)ccc1OCC(F)(F)F (single isomer, unassigned)
Would you kindly point out which of a and b has the smaller pIC50 figure? Kindly give the label for the entry you pick.
a
(a: 7.03, b: 7.72)

A = COc1cn(C(C[C@H]2CCCCO2)C(=O)Nc2ccc(C(=O)O)cc2)c(=O)cc1-c1cc(Cl)ccc1OCC(F)(F)F (stereo partly shown)
B = COCCC(C(=O)Nc1ccc(C(=O)O)cc1)n1cc(OC)c(-c2cc(Cl)ccc2OCC(F)(F)F)cc1=O (racemic) [Example 1]
C = CNC(=O)c1ccc(NC(=O)C(Cc2ccn(C)n2)n2cc(OC)c(-c3cc(Cl)ccc3OCC(F)(F)F)cc2=O)cn1 (racemic)
D = COc1cn(C(Cc2ccn(C)n2)C(=O)Nc2ccc(C(=O)O)cc2)c(=O)cc1-c1cc(Cl)ccc1OCC(F)(F)F (racemic) [Example 13]
Ascending sort, pIC50. # respond with the labels, arranged in the requested order
A, B, C, D

I = COc1cn(C(C[C@@H]2CCCCO2)C(=O)Nc2ccc(C(N)=O)nc2)c(=O)cc1-c1cc(Cl)ccc1OCC(F)(F)F (stereo partly shown)
II = COc1cn(C(Cc2ccn(C)n2)C(=O)Nc2ccc(C(=O)O)cc2)c(=O)cc1-c1cc(Cl)ccc1OCC(F)(F)F (single isomer, unassigned) [Example 43]
Would you kindly point out which of I and II has the smaller pIC50 figure? Kindly give the label for the entry you pick.
I
